Below is a list of entries, each paired with its recorded normalized growth value.
Test: chemical genetic growth profiling, strain panel (AID 1159580);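 note: tested at 20 µM; growth read once vehicle control cultures reached saturation at 30 °C; 1 = growth at the plate median or of vehicle wells; lower values mean less growth of the strain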
Settings: S. cerevisiae deletion strains, growth OD, locus YIL073C, strain SPO22, active compounds read low
Among all 5,500 compounds or so, about 2,000 (36%) were called active. Another 18% or so got no clear call; they are omitted. The list shows a part of the results.
Note: the reply should be a number with no unit written.

Solved entries:
COc1ccccc1-c1cc(=O)c2c(OC)cccc2o1: 0.931
CC1(C)CC2C1CCC1(C)OC2(C)CCC1O (configuration not stated): 1.02
CCOC(=O)c1ccc(N)cc1: 0.943
c1ccc2[nH]c(-c3cscn3)nc2c1: 1.06
CCCCC(CC)CN=C(N)NC(N)=NCCCCCCN=C(N)NC(N)=NCC(CC)CCCC (configuration not stated): 0.104

Okay, next one:
Entry COc1ccc2c(c1O)-c1c(OC)c(OC)cc3c1[C@H](C2)N(C)CC3 ; normalized growth = 1.1

---

Test: chemical genetic growth profiling, strain panel (AID 1159580);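 note: tested at 20 µM; growth read once vehicle control cultures reached saturation at 30 °C; 1 = growth at the plate median or of vehicle wells; lower values mean less growth of the strain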
Conditions: S. cerevisiae deletion strains, growth OD, locus YKR001C, strain vps1, active compounds read low
Hit rate of the full screen: of about 5,500 compounds, about 2,000 (36%) were called active. Roughly 18% stayed inconclusive and do not appear here. Some of the results follow.
readout.label: normalized growth
Note: the reply should be a number with no unit written.

Solved entries:
COc1ccccc1-c1cc(=O)c2cccc(OC)c2o1: 0.855
COc1ccccc1-c1cc(=O)c2c(OC)cccc2o1: 0.916
CC[C@]12CCCN3CCc4c(n(c5ccccc45)C(=O)C1)[C@@H]32: 0.955

Okay, next one:
Entry C=CCN1CC[C@]23c4c5ccc(O)c4OC2C(=O)CC[C@@]3(O)[C@H]1C5 (some centres undefined) ; normalized growth = 0.989

---

Assay: chemical genetic growth profiling, strain panel (AID 1159580);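 note: tested at 20 µM; growth read once vehicle control cultures reached saturation at 30 °C; 1 = growth at the plate median or of vehicle wells; lower values mean less growth of the strain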
Conditions: S. cerevisiae strains, growth OD, strain wild type, active compounds read low
Hit rate of the full screen: of about 5,500 compounds, about 2,000 (36%) were called active. Not shown: some 18% with an inconclusive outcome. The list shows a part of the results.
readout.label: normalized growth

c1ccc(CSC2=NCCCN2)cc1: 1.01 (inactive)
O=C(CC(Nc1ccccc1)c1ccccc1)C1CC1 (configuration not stated): 0.979 (inactive)

Entry CC(=O)O[C@H]1CC[C@@]2(C)C(=CCC3C2CC[C@@]2(C)C3CC[C@@H]2C(C)CCCC(C)C)C1 (some centres not stated) ; normalized growth = 1.01 (inactive)

Entry Cc1ccc(-n2nc(-c3ccc(OC(F)(F)F)cc3)cc2NC(=O)Nc2ccc(OC(F)(F)F)cc2)cc1C ; normalized growth = 1.02 (inactive)

Entry O=C1CNC(=S)N1CCc1ccccn1 ; normalized growth = 0.969 (inactive)

Entry O=C(O)CNCP(=O)(O)O ; normalized growth = 0.997 (inactive)

Entry CC12CCC3C(CC=C4CC(O)CCC43C)C1CCC2=O (configuration not stated) ; normalized growth = 0.877 (active)

---

Assay: chemical genetic growth profiling, strain panel (AID 1159580);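 note: tested at 20 µM; growth read once vehicle control cultures reached saturation at 30 °C; 1 = growth at the plate median or of vehicle wells; lower values mean less growth of the strain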
Settings: S. cerevisiae deletion strains, growth OD, locus YCR088W, strain abp1, active compounds read low
The whole screen tested about 5,500 compounds, of which about 2,000 (36%) were called active. Roughly 18% stayed inconclusive and do not appear here. The list shows a part of the results.
readout.label: normalized growth
Note: the reply should be a number with no unit written.

CC(=O)OCC(=O)[C@@]12OC(C)(C)O[C@@H]1CC1C3C[C@H](F)C4=CC(=O)C=C[C@]4(C)[C@@]3(F)[C@@H](O)C[C@@]12C (stereo partly specified): 1.02
O=c1cccc2n1C[C@H]1CNCC2C1: 1
Nc1ccc(S(=O)(=O)Nc2nccs2)cc1: 1.01

Entry C[C@H](COc1ccccc1)N[C@H](C)[C@H](O)c1ccc(O)cc1 ; normalized growth = 0.998

Entry c1ccc(-c2ccc(C(c3ccccc3)n3ccnc3)cc2)cc1 (stereo unspecified) ; normalized growth = 0.0692

Entry CC(COc1ccccc1)N(CCCl)Cc1ccccc1 (stereo unspecified) ; normalized growth = 0.986
